assay.text: Binding affinity against Opioid receptor delta 1 in guinea pig brain homogenates, using [3H]DPDPE as radioligand.
value.type: Ki
Report the figure along with its unit, number first.

Exercise: // returns reported Ki for input CC1(C)SSC[C@@H](NC(=O)[C@H]2NCC[C@@H]2c2ccc(O)cc2)C(=O)N[C@@H](Cc2ccccc2)C(=O)N[C@@H]1C(=O)O
Key: 0.66 nM

Exercise: // returns reported Ki for input CC1(C)SSC[C@@H](NC(=O)[C@@H]2NCC[C@@H]2c2ccc(O)cc2)C(=O)N[C@@H](Cc2ccccc2)C(=O)N[C@@H]1C(=O)O
Key: 84 nM
